Just for reference, patent US9663511B2 is where these values come from.

- method_notes: Blood concentrations and pharmacokinetics after 1 mg/kg i.v. in mice
- Assay type: in vivo, mouse
- test_conditions: mouse, whole blood, iv, 1 mg/kg, mouse, 12 h, mean (n = 2 for Cmpd-1), read-out: Blood Concentrations, Mean S.D.
metric_name: concentration at 12 h
Report as: number unit

Looking up `C=CCn1nc(C)c2c(C(C)C)cc(NNC(=O)Nc3cc(Cl)nc(Cl)c3)nc21` , I see its concentration at 12 h listed as 1.7 ng/mL

###

- method_notes: Blood concentrations and pharmacokinetics after 1 mg/kg i.v. in mice
- Assay type: in vivo, mouse
- test_conditions: mouse, in vivo, iv, 1 mg/kg, mouse, 0.5 h, individual mice, LLOQ = 1 ng/mL, read-out: Blood Concentrations
metric_name: concentration at 0.5 h

concentration at 0.5 h reading for `Cc1nn(C)c2nc(NNC(=O)Nc3cc(Cl)nc(Cl)c3)cc(C(C)C)c12` : 44.4 ng/mL
